- Tested on: platelet collagen receptor glycoprotein VI (GPVI)
- experiment-summary: GPVI (convulxin-induced) platelet aggregation
- Type: cell-based, human
- assay-setup: Homo sapiens, Platelet; FIG. 16
pIC50: −log10 of the molar value.

[
  {
    "structure-string": "CC#CC(=O)N1CCC[C@H]1c1nc(-c2ccc(C(=O)Nc3ccccn3)cc2)c2c(N)nccn12",
    "test-system": "platelet collagen receptor glycoprotein VI (GPVI)",
    "pIC50": 5.94
  }
]
